- Test system: Staphylococcus aureus
- assay_comment: Compound was tested for bacterial translation inhibition (in vitro) using transcription-translation assay
- Format: functional
This section presents molecules with their documented IC50 values.
measured_parameter: IC50 (µM)

> print(dat)
                               smiles.entry  measured.parameter  unit.abbrev  lt.gt.eq  reported
1  NC[C@H]1O[C@H](O[C@@H]2C[C@H](CO)NCC[C@H]2N)[C@H](N)[C@@H](O)[C@@H]1O                IC50           µM         =       6.4
2  NC[C@H]1O[C@H](O[C@@H]2CCN[C@@H](CO)C[C@H]2N)[C@H](N)[C@@H](O)[C@@H]1O                IC50           µM         =       230
3  NC[C@H]1O[C@H](O[C@H]2CCN[C@H](CO)C[C@@H]2N)[C@H](N)[C@@H](O)[C@@H]1O                IC50           µM         =        39
4  NC[C@H]1O[C@H](O[C@H]2C[C@H](CCl)NCC[C@@H]2N)[C@H](N)[C@@H](O)[C@@H]1O                IC50           µM         =        82
5  N[C@H]1[C@@H](O[C@H]2C[C@H](CO)NCC[C@@H]2N)O[C@H](CO)[C@@H](O)[C@@H]1O                IC50           µM         =       110
6  NC[C@H]1O[C@H](O[C@H]2C[C@H](CO)NCC[C@@H]2N)[C@H](N)[C@@H](OCc2ccccc2)[C@@H]1OCc1ccccc1                IC50           µM         >      1000
7  NC[C@H]1O[C@H](O[C@@H]2CCN[C@H](CO)C[C@H]2N)[C@H](N)[C@@H](O)[C@@H]1O                IC50           µM         =        47
8  NC[C@H]1O[C@H](O[C@H]2CCN[C@@H](CO)C[C@@H]2N)[C@H](N)[C@@H](O)[C@@H]1O                IC50           µM         =       370
